assay: activity in anthrone reoxidation (disappearance of 2-butylanthrone in fortified working solution under oxygen; liquid chromatography); details: 0.1 weight % amine, 2 weight % 2-butylanthrone, 60° C., 24 hours, control (no amine) 76
Reported Metric: % Original Amount Remaining After 24 Hours: 2-Butylanthrone (%)

Molecule | Value
CCCCN(CCCC)c1ccc(C)cc1 | 10
CCCCCCCCc1ccc(N(CCCC)CCCC)cc1 | 11
CCN(CC)c1cccc(C)c1 | 5
CCCCCCN(CCCCCC)c1ccccc1 | 36
c1ccc(Nc2ccccc2)cc1 [Example 3, Diphenylamine, reference compound] | 82
c1ccc(CN(Cc2ccccc2)Cc2ccccc2)cc1 [Example 4, Tribenzylamine, reference compound] | 64

I: CCCCN(CCCC)c1ccccc1
II: CCCCN(CCCC)c1ccc(C)c(C)c1
Query block: Decide: I or II , by lowest recorded % Original Amount Remaining After 24 Hours: 2-Butylanthrone. Selection: enter the item's label.
Result block: II
(II: 8%, I: 13%)
